Attribution: ChEMBL document CHEMBL1201862

test system: 786-0; experiment: NCI tumour cell line growth inhibition, 48 h
Activity calls are given as the source filed them. Cut-off read from the data, not from the text of the source: active = GI50 up to about 1.1 µM and inactive = higher.
Endpoint: GI50

Molecule	Endpoint	Experimental result
C/N=C(\NC(=S)N(C)C)N(C)C	GI50	> 100 µM (inactive)
Cc1ccc(-c2c(C#N)c(S)n(NS(=O)(=O)c3ccccc3)c(=O)c2C#N)cc1	GI50	29.6 µM (inactive)
Cc1cc(C)nc(NS(=O)(=O)c2ccc(Nc3c4ccc(Cl)cc4nc4c(C(=O)NCCN(C)C)cccc34)cc2)n1	GI50	> 100 µM (inactive)
COc1ccc2[nH]c3c(c2c1)CCN(C)CC3	GI50	> 100 µM (inactive)
O=C(O)CN1CCN(CC(=O)O)CCN(CC(=O)O)CCN(CC(=O)O)CC1	GI50	> 100 µM (inactive)
O=C(OCc1ccccc1)c1nc2ccccc2n1S(=O)(=O)c1ccccc1	GI50	> 100 µM (inactive)
C=CCn1c(=O)c2ccccc2[n+]2c(C)c(C(=O)OCC)sc12	GI50	> 100 µM (inactive)
CCC1(CCSC(=N)N)C(=O)NC(=O)NC1=O	GI50	> 100 µM (inactive)
Cn1c2ccccc2c(=O)c2c([N+](=O)[O-])ccc(NCCN)c21	GI50	6.93 µM (inactive)
O=C(Cn1ccc(=O)[nH]c1=O)Nc1ccc(C(=O)O)c(O)c1	GI50	> 100 µM (inactive)
COC(=O)CC(SCCO)SCCO	GI50	> 100 µM (inactive)
CC(C)(C)c1cc(C2NC(=O)NC2=O)cc(C(C)(C)C)c1O (configuration not stated)	GI50	> 10 µM (inactive)

----------
system: RPMI-8226; assay: NCI tumour cell line growth inhibition, 48 h
Activity calls are given as the source filed them. Cut-off read from the data, not from the text of the source: active = GI50 up to about 1.1 µM and inactive = higher.
Possible outcomes: active, inactive

Compound	Label value
C=C[C@@H]1OC(=O)O[C@H]1CO	inactive
CCOC(=O)CON=c1c2ccccc2ccc2ccccc12	inactive
O=S(=O)(CCBr)CCBr	inactive
COc1ccc(S(=O)(=O)N2C(=O)CCC2C(=O)NN)cc1 (stereo not drawn)	inactive
COc1ccc(/C=C/C(=O)/C=C/c2ccc(OC)cc2)cc1	inactive
O=C1CC(c2ccccc2)C2(C(=O)NC(=S)NC2=O)C(c2ccccc2)C1 (stereo not drawn)	inactive
CCn1ncc(Oc2c(Cl)cc(N)cc2Cl)c(Cl)c1=O	inactive
CCCCCCc1nn2c(-c3ccc(C)cc3)nnc2s1	inactive
COc1cc(Cl)cc(O)c(=O)c1OC	inactive
CC(C)(C=O)CC(C#N)/C(=N\NC(N)=O)C(=O)Nc1ccccc1C(N)=O (stereo not drawn)	inactive
COc1ccc(N2C(=O)CC(=O)N(C(=O)CCCCCCCCC(=O)N3C(=O)CC(=O)N(c4ccc(OC)cc4)C3=S)C2=S)cc1	inactive
N[C@H](C(=O)O)[C@@H](Cl)CC(=O)O	inactive
COC(=O)C(=O)C(C(=O)C(=O)Nc1nnc(S)[nH]1)c1nc2ccc([N+](=O)[O-])cc2nc1O (stereo not drawn)	inactive
CN(C)CCCNC(=O)c1c(-c2cccnc2)cnc2ccccc12	inactive
CC1=CC(=O)CC(C)(C)C1/C=C/C(C)=C/C=C/C(C)=C/C=C/C=C(C)/C=C/C=C(C)/C=C/C1=C(C)CC(O)CC1(C)C (stereo not drawn)	inactive
CCCCC(=O)NC1(c2cc3ccccc3s2)CCCCC1	inactive
COc1ccccc1N(CN1C(=O)CCC1C(=O)O)C(C)=O (stereo not drawn)	inactive
CN1CCC2(CC1)/C(=N/C1CCCCC1)NC(=O)N2c1ccccc1	inactive
NCCCn1c(Cl)nc2ccccc21	inactive
CC[C@@]1(O)C(=O)OCc2c1cc1n(c2=O)Cc2c-1nc1ccccc1c2/C=N\NC(=O)C(N)Cc1c[nH]cn1 (stereo partly drawn)	active
CC1CN(CCO)CC(C)O1 (stereo not drawn)	inactive
CC(C)(Cl)C(Br)CCC(Br)(CCl)C(Cl)CBr (stereo not drawn)	inactive
NC(=O)C(=O)C1CCC2=C(Sc3ccccc3N2)C1=O (stereo not drawn)	inactive
